Test: activity coefficient (dimensionless); of the first substance listed, at infinite dilution; xn = mol fraction of the nth substance listed
Conditions: 343.75 K; Liquid; Chromatography; x1 = 0
# activity coefficient values compiled below
Output spec: single numeric token, no unit.

// worked examples, activity coefficient included
- molecule: "CCC(=O)OC [methyl propanoate] + CCCC[N+](C)(C)C.O=S(=O)([N-]S(=O)(=O)C(F)(F)F)C(F)(F)F"
  activity coefficient: 0.91
- molecule: "CC(C)=O [acetone] + CCCC[N+](C)(C)C.O=S(=O)([N-]S(=O)(=O)C(F)(F)F)C(F)(F)F"
  activity coefficient: 0.4

Query molecule follows.
Q: Which activity coefficient is listed for CN1CCCC1=O [N-methylpyrrolidone] + CCCC[N+](C)(C)C.O=S(=O)([N-]S(=O)(=O)C(F)(F)F)C(F)(F)F ?
Result: 46.1

====

Experiment: activity coefficient (dimensionless); of the first substance listed, at infinite dilution; xn = mol fraction of the nth substance listed
Settings: 343.75 K; Liquid; Chromatography; x1 = 0
measured.endpoint: activity coefficient
# respond with the number and nothing more

- molecule: "CC#N [acetonitrile] + CCCC[N+](C)(C)C.O=S(=O)([N-]S(=O)(=O)C(F)(F)F)C(F)(F)F"
  activity coefficient: 0.46
- molecule: "C1COCCO1 [1,4-dioxane] + CCCC[N+](C)(C)C.O=S(=O)([N-]S(=O)(=O)C(F)(F)F)C(F)(F)F"
  activity coefficient: 0.74
- molecule: "CCc1ccccc1 [ethylbenzene] + CCCC[N+](C)(C)C.O=S(=O)([N-]S(=O)(=O)C(F)(F)F)C(F)(F)F"
  activity coefficient: 2.65

Q: // lookup activity coefficient for C=CCCCCCCCCCC [1-dodecene] + CCCC[N+](C)(C)C.O=S(=O)([N-]S(=O)(=O)C(F)(F)F)C(F)(F)F
Result: 68.9

====

Assay: activity coefficient (dimensionless); of the first substance listed, at infinite dilution; xn = mol fraction of the nth substance listed
Details: 364.45 K; Liquid; Chromatography; x1 = 0
measured.endpoint: activity coefficient

Here's what some known entries look like.
- compound: "CCCCCO [pentan-1-ol] + CCCC[N+](C)(C)C.O=S(=O)([N-]S(=O)(=O)C(F)(F)F)C(F)(F)F"
  measured.endpoint: "activity coefficient"
  measured.value: 2.45
- compound: "CCCCCc1ccccc1 [pentylbenzene] + CCCC[N+](C)(C)C.O=S(=O)([N-]S(=O)(=O)C(F)(F)F)C(F)(F)F"
  measured.endpoint: "activity coefficient"
  measured.value: 7.69
- compound: "CCC(C)O (centres undefined) [butan-2-ol] + CCCC[N+](C)(C)C.O=S(=O)([N-]S(=O)(=O)C(F)(F)F)C(F)(F)F"
  measured.endpoint: "activity coefficient"
  measured.value: 1.53

Q: Using the record for CCCc1ccccc1 [propylbenzene] + CCCC[N+](C)(C)C.O=S(=O)([N-]S(=O)(=O)C(F)(F)F)C(F)(F)F , report its activity coefficient.
Result: 3.69

====

Test: activity coefficient (dimensionless); of the first substance listed, at infinite dilution; xn = mol fraction of the nth substance listed
Settings: 364.55 K; Liquid; Chromatography; x1 = 0
# class assignment by measured activity coefficient: Low: < 3; Medium: ≥ 3 and < 40; High: ≥ 40

Q: Form field 'band' for C=CCCCCCCCCC [1-undecene] + CCCC[N+](C)(C)C.O=S(=O)([N-]S(=O)(=O)C(F)(F)F)C(F)(F)F
Result: High

Q: Which category fits this record: CCCCC(=O)OC [methyl pentanoate] + CCCC[N+](C)(C)C.O=S(=O)([N-]S(=O)(=O)C(F)(F)F)C(F)(F)F
Result: Low

Q: # classify by activity coefficient band: CCCCCCCCCCC [undecane] + CCCC[N+](C)(C)C.O=S(=O)([N-]S(=O)(=O)C(F)(F)F)C(F)(F)F
Result: High

Q: Could you place CCCCCCCCC [nonane] + CCCC[N+](C)(C)C.O=S(=O)([N-]S(=O)(=O)C(F)(F)F)C(F)(F)F in its proper category? Many thanks.
Result: Medium

Q: Using the reported activity coefficient, which band applies to C=CCCCCCCCCCC [1-dodecene] + CCCC[N+](C)(C)C.O=S(=O)([N-]S(=O)(=O)C(F)(F)F)C(F)(F)F ?
Result: High

====

Assay: activity coefficient (dimensionless); of the first substance listed, at infinite dilution; xn = mol fraction of the nth substance listed
Conditions: 333.25 K; Liquid; Chromatography; x1 = 0
measured.endpoint: activity coefficient
Could you keep your reply to the number by itself?

Worked set:
- molecule: "Cc1ccccc1 [toluene] + CCCC[N+](C)(C)C.O=S(=O)([N-]S(=O)(=O)C(F)(F)F)C(F)(F)F"
  measured.value: 1.71
- molecule: "CCCCCCC [heptane] + CCCC[N+](C)(C)C.O=S(=O)([N-]S(=O)(=O)C(F)(F)F)C(F)(F)F"
  measured.value: 23.4
- molecule: "CCC(C)(C)O [2-methylbutan-2-ol] + CCCC[N+](C)(C)C.O=S(=O)([N-]S(=O)(=O)C(F)(F)F)C(F)(F)F"
  measured.value: 1.94

Q: Look at this molecule and give its reported activity coefficient. CCc1ccccc1 [ethylbenzene] + CCCC[N+](C)(C)C.O=S(=O)([N-]S(=O)(=O)C(F)(F)F)C(F)(F)F
Result: 2.76

Q: Please report the recorded activity coefficient for C=CCCCCCCCCCC [1-dodecene] + CCCC[N+](C)(C)C.O=S(=O)([N-]S(=O)(=O)C(F)(F)F)C(F)(F)F .
Result: 76.8

Q: Item CCCc1ccccc1 [propylbenzene] + CCCC[N+](C)(C)C.O=S(=O)([N-]S(=O)(=O)C(F)(F)F)C(F)(F)F has what recorded activity coefficient?
Result: 3.95

Q: Look at this molecule and give its reported activity coefficient. CCCCCCCC [octane] + CCCC[N+](C)(C)C.O=S(=O)([N-]S(=O)(=O)C(F)(F)F)C(F)(F)F
Result: 34.1

====

Experiment: activity coefficient (dimensionless); of the first substance listed, at infinite dilution; xn = mol fraction of the nth substance listed
Conditions: 343.65 K; Liquid; Chromatography; x1 = 0
Listed below: activity coefficient values for each entry.

- compound: "CCO [ethanol] + CCCC[N+](C)(C)C.O=S(=O)([N-]S(=O)(=O)C(F)(F)F)C(F)(F)F"
  activity coefficient: 1.41
- compound: "Cc1ccccc1 [toluene] + CCCC[N+](C)(C)C.O=S(=O)([N-]S(=O)(=O)C(F)(F)F)C(F)(F)F"
  activity coefficient: 1.7
- compound: "CCCCCO [pentan-1-ol] + CCCC[N+](C)(C)C.O=S(=O)([N-]S(=O)(=O)C(F)(F)F)C(F)(F)F"
  activity coefficient: 3.01
- compound: "C1=CCCC=C1 [1,3-cyclohexadiene] + CCCC[N+](C)(C)C.O=S(=O)([N-]S(=O)(=O)C(F)(F)F)C(F)(F)F"
  activity coefficient: 3.03

As a next step, examine the compound that follows.
Q: Please give the measured activity coefficient for this compound: CCCCCCCCCCC [undecane] + CCCC[N+](C)(C)C.O=S(=O)([N-]S(=O)(=O)C(F)(F)F)C(F)(F)F
Result: 83.9

====

Experiment: activity coefficient (dimensionless); of the first substance listed, at infinite dilution; xn = mol fraction of the nth substance listed
Conditions: 364.55 K; Liquid; Chromatography; x1 = 0
Below: a set of entries, each annotated with reported activity coefficient.
Response field accepts a number only; no unit should be typed.

Take a look at these entries with their results.
- compound: "CCCCCC(=O)OC [methyl hexanoate] + CCCC[N+](C)(C)C.O=S(=O)([N-]S(=O)(=O)C(F)(F)F)C(F)(F)F"
  activity coefficient: 2.19
- compound: "C=CCCCCCC [oct-1-ene] + CCCC[N+](C)(C)C.O=S(=O)([N-]S(=O)(=O)C(F)(F)F)C(F)(F)F"
  activity coefficient: 15.1
- compound: "C=CCCCC [hex-1-ene] + CCCC[N+](C)(C)C.O=S(=O)([N-]S(=O)(=O)C(F)(F)F)C(F)(F)F"
  activity coefficient: 7.93
- compound: "C=CCCCCCCC [1-nonene] + CCCC[N+](C)(C)C.O=S(=O)([N-]S(=O)(=O)C(F)(F)F)C(F)(F)F"
  activity coefficient: 20.9
- compound: "C1=CCCC=C1 [1,3-cyclohexadiene] + CCCC[N+](C)(C)C.O=S(=O)([N-]S(=O)(=O)C(F)(F)F)C(F)(F)F"
  activity coefficient: 2.81

Q: Return reported activity coefficient; argument: CN(C)C=O [dimethylformamide] + CCCC[N+](C)(C)C.O=S(=O)([N-]S(=O)(=O)C(F)(F)F)C(F)(F)F
Result: 0.29

Q: // lookup activity coefficient for CCCCCCC(=O)OC [methyl heptanoate] + CCCC[N+](C)(C)C.O=S(=O)([N-]S(=O)(=O)C(F)(F)F)C(F)(F)F
Result: 2.81
